Target: rat P2X7 (Rattus norvegicus)
Experiment: Ca2+ flux (FLIPR) in 1321N1 cells expressing recombinant rat P2X7 channel
Conditions: FLIPR (rat) IC50 (μM), 250 μM BzATP
Task for the reader: assign each of the following compounds its reported IC50.
Give bare numbers, in µM.

Worked examples follow.
COMPOUND | MEAS VALUE
C[C@H]1Cn2c(nnc2-c2ccccc2F)CN1C(=O)c1cccc(Cl)c1Cl [Example 38] | 7.67
O=C(c1ccc(F)c(C(F)(F)F)c1Cl)N1CCn2c(nnc2C(F)(F)F)C1c1ccccc1 (single isomer, unassigned) [Example 95] | 0.211
Cc1nnc2n1CCN(C(=O)c1cccc(Cl)c1Cl)[C@H]2c1ccc(F)cc1 [Example 105] | 9.95

// map C[C@H]1Cn2c(nnc2-c2ccc(C(F)(F)F)cc2)CN1C(=O)c1cccc(Cl)c1Cl [Example 26] to recorded IC50 (system: rat P2X7 (Rattus norvegicus)) 3.95

----------
Biological target: P2X7 (Homo sapiens)
Test: Ca2+ flux (FLIPR) in 1321N1 cells expressing recombinant human P2X7 channel
Type: cell-based
Parameters: expressed in transfected cells; host or cells: 1321N1 cells
Settings: 250 μM BzATP
Protocol: P2X7 Antagonism in Recombinant Human P2X7 Cells or Recombinant Rat P2X7 Cells: (a) Ca^2+ Flux and (b) Radioligand Binding (a) Ca^2+ flux: 1321N1 cells expressing the recombinant human or rat P2X7 channel was cultured in HyQ DME/(HyClone/Dulbecco's Modified Eagle Medium) high glucose supplemented with 10% Fetal Bovine Serum (FBS) and appropriate selection marker. […] The fluorescence change was measured 180 seconds after adding the agonist.
QUANTITY: pIC50
Answers are plain numbers, as −log10 of the molar value.

Sample answers from the record:
COMPOUND | pIC50
Cc1nnc2n1CCN(C(=O)c1cccc(C(F)(F)F)c1Cl)[C@H]2c1ccc(F)cc1 [Example 115] | 8.10
O=C(c1cccc(C(F)(F)F)c1F)N1CCn2c(nnc2C(F)(F)F)[C@H]1c1ccccc1 [Example 128] | 7.16
C[C@H]1Cn2c(nnc2-c2ccccc2F)CN1C(=O)c1cccc(C(F)(F)F)c1Cl [Example 39] | 5.61

Fill blank: measured pIC50 of the compound C[C@H]1Cn2c(nnc2-c2ccc(F)cn2)CN1C(=O)c1cccc(C(F)(F)F)c1Cl [Example 70] is ____. 8.16

----------
Biological target: P2X7 (Homo sapiens)
Experiment: Ca2+ flux (FLIPR) in 1321N1 cells expressing recombinant human P2X7 channel
Format: cell-based
Set-up: expressed in transfected cells; host or cells: 1321N1 cells
Settings: 250 μM BzATP
For each of the molecules below, state its IC50.
Answers are plain numbers, in nM.

Here is how some molecules turned out for IC50.
MOLECULE | IC50 [nM]
C[C@H]1Cn2c(nnc2-c2cccc(F)c2F)CN1C(=O)c1ccc(F)c(Cl)c1Cl | 2540
C[C@H]1Cn2c(nnc2-c2ccc(F)cc2F)CN1C(=O)c1cccc(C(F)(F)F)c1Cl | 1930
O=C(c1cccc(C(F)(F)F)c1Cl)N1CCn2c(C3CCC3)nnc2[C@@H]1c1ccccc1 | 434

Would you mind listing IC50 for each of the following molecules?
1. O=C(c1cccc(C(F)(F)F)c1Cl)N1CCn2c(-c3ccco3)nnc2C1c1ccccc1 (racemic)
2. O=C(c1ccc(F)c(C(F)(F)F)c1Cl)N1CCn2c(nnc2C(F)(F)F)C1c1ccccc1 (single isomer, unassigned) [Example 95]
3. O=C(c1cccc(C(F)(F)F)c1Cl)N1CCn2c(C(F)F)nnc2[C@H]1c1ccccc1
4. CC(C)c1nnc2n1CCN(C(=O)c1cccc(C(F)(F)F)c1Cl)[C@@H]2c1ccccc1
5. Cc1nnc2n1CCN(C(=O)c1cccc(C(F)(F)F)c1Cl)C2c1ccccc1 (racemic)

1. 15.1
2. 9.7
3. 8.6
4. 10.2
5. 2

Look up IC50 for the entries below, preserving their order.
1. C[C@H]1Cn2c(nnc2-c2cccc(F)c2F)CN1C(=O)c1cccc(Cl)c1Cl
2. Cc1nnc2n1CCN(C(=O)c1cccc(Cl)c1Cl)[C@@H]2c1ccc(F)cc1

1. 3920
2. 4480

Record IC50 for all entries; do not skip any.
1. O=C(c1cccc(C(F)(F)F)c1Cl)N1CCn2c(C3CC3)nnc2[C@@H]1c1ccccc1
2. O=C(c1ccnc(C(F)(F)F)c1Cl)N1CCn2c(nnc2C(F)(F)F)C1c1ccccc1 (single isomer, unassigned)

1. 6.7
2. 9.1

----------
Molecular target: rat P2X7 (Rattus norvegicus)
Sequence (Q64663 1-595): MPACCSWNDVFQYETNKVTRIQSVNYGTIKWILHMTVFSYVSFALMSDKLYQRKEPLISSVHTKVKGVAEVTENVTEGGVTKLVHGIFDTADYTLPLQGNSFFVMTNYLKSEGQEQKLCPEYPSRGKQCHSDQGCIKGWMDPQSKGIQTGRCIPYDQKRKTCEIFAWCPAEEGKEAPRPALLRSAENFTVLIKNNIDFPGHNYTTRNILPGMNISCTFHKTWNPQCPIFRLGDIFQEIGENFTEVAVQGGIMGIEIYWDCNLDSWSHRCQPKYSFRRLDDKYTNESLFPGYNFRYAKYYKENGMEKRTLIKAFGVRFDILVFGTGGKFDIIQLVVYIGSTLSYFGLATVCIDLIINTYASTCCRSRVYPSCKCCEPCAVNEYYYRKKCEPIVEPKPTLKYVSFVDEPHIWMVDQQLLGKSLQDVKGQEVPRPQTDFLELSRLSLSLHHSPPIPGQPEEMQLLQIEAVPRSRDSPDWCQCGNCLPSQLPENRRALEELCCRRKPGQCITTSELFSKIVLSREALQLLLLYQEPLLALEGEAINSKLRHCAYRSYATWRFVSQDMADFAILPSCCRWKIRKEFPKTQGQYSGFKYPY
Assay: Ca2+ flux (FLIPR) in 1321N1 cells expressing recombinant rat P2X7 channel
Settings: FLIPR (rat) IC50 (μM), 250 μM BzATP
QUANTITY: log10(IC50) (log10 of the value in µM)
Annotation: log10 of IC50, µM basis.

# example entries with known answers
MOLECULE | TARGET OF ASSAY | log10(IC50)
Cc1nnc2n1CCN(C(=O)c1cccc(C(F)(F)F)c1Cl)[C@H]2c1ccccn1 | rat P2X7 (Rattus norvegicus) | 1.25
CC1c2nnc(-c3ccccn3)n2CCN1C(=O)c1ccnc(C(F)(F)F)c1Cl (stereo not drawn) | rat P2X7 (Rattus norvegicus) | -1.75
Cc1c(C(=O)N2CCn3c(nnc3C(F)(F)F)[C@H]2c2ccccc2)cccc1C(F)(F)F | rat P2X7 (Rattus norvegicus) | -0.58
CCc1nnc2n1CCN(C(=O)c1cccc(C(F)(F)F)c1Cl)[C@H]2c1ccccc1 | rat P2X7 (Rattus norvegicus) | 1.00
Cc1nnc2n1CCN(C(=O)c1cccc(C(F)(F)F)c1Cl)C2c1ccccn1 (racemic) | rat P2X7 (Rattus norvegicus) | 0.01

I would be grateful if you could provide log10(IC50) for each of the following entries.
1. CC1c2nnc(-c3ccccn3)n2CCN1C(=O)c1cccc(Cl)c1Cl (stereo not drawn)
2. C[C@H]1Cn2c(nnc2-c2cccc(F)c2F)CN1C(=O)c1ccc(F)c(Cl)c1Cl
3. CC1c2nnc(-c3ccc(Cl)cc3)n2CCN1C(=O)c1cccc(C(F)(F)F)c1Cl (stereo not drawn)

[0.08, 0.38, 0.66]

Consider the molecule shown here: Cc1nnc2n1CCN(C(=O)c1cccc(C(F)(F)F)c1Cl)C2c1ccc(F)cc1 (racemic) What is its recorded log10(IC50)? 0.70

----------
Target: P2X7 (Homo sapiens, UniProt Q99572)
Sequence (Q99572 1-595): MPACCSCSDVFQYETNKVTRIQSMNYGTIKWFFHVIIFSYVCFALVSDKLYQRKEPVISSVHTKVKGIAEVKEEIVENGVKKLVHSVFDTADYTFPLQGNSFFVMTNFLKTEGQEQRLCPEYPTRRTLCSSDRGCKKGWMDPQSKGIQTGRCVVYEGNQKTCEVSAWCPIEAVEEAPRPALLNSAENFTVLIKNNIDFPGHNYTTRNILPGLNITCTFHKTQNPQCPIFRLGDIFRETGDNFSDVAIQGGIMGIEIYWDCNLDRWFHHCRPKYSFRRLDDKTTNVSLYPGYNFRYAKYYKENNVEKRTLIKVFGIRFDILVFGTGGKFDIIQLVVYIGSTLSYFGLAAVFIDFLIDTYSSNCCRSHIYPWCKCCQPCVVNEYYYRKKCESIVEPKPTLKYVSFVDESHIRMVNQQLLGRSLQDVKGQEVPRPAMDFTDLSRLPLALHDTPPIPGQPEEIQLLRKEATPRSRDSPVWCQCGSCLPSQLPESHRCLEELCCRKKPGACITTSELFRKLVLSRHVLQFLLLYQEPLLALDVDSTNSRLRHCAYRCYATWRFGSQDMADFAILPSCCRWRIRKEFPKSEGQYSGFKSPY
Experiment: Ca2+ flux (FLIPR) in 1321N1 cells expressing recombinant human P2X7 channel
Assay type: cell-based
Design: expressed in transfected cells; host or cells: 1321N1 cells
Details: 250 μM BzATP
Rule: IC50 below 0.5 µM gives Criterion met, anything at or above gives Criterion not met.

These recorded examples may help you get a feel for the data.
MOLECULE | LABEL VALUE
O=C(c1cccc(C(F)(F)F)c1Cl)N1CCn2c(C3CC3)nnc2[C@@H]1c1ccc(F)cc1 | Criterion met
CC1c2nnc(-c3ccccn3)n2CCN1C(=O)c1ccnc(C(F)(F)F)c1Cl (centres unmarked) | Criterion met
O=C(c1cccc(C(F)(F)F)c1Cl)N1CCn2c(C(F)F)nnc2[C@@H]1c1ccccc1 | Criterion not met
Cc1nnc2n1CCN(C(=O)c1cccc(C(F)(F)F)c1Cl)[C@@H]2c1ccccc1 | Criterion met
C[C@H]1Cn2c(nnc2-c2ccc(F)c(F)c2)CN1C(=O)c1ccc(F)c(Cl)c1Cl | Criterion not met
COc1ccc(-c2nnc3n2C[C@H](C)N(C(=O)c2cccc(Cl)c2Cl)C3)nc1 | Criterion not met
C[C@H]1Cn2c(nnc2-c2ccc(C(F)(F)F)c(F)c2)CN1C(=O)c1cccc(Cl)c1Cl | Criterion not met

With those in mind, consider the next molecule.
Is IC50 strictly under 0.5 µM for the entry O=C(c1cccc(Cl)c1Cl)N1CCn2c(C(F)F)nnc2[C@@H]1c1ccccc1 ? Criterion not met
